test system: Wnt5a (protein binding on small-molecule microarray); experiment: Wnt5a binders on small-molecule microarray, primary screen, biophysical, 635/667 nm fluorescence (AID 1142); settings: 635 nm fluorescence, higher = more signal;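 note: fluorescence read at 667 nm with signal to noise per printed feature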
The entries below are paired with their reported composite z-score.

>  <item-smiles>
CC(=O)OC[C@H]1O[C@H](CC=NOC[C@@H](O)COCc2ccco2)C=C[C@@H]1OC(C)=O

>  <composite z-score>
0.364

$$$$
>  <item-smiles>
CC(CCN1CCCc2nc(C)c(C)cc21)=NO[C@@H](C)c1cn([C@H](CO)Cc2ccccc2)nn1

>  <composite z-score>
0.0241

$$$$
>  <item-smiles>
CCOC(=O)CCN1C(=O)[C@H]2[C@H]3[C@H](O)[C@H](O)CC(=O)[C@@H]3CC[C@H]2C1=O

>  <composite z-score>
0.352

$$$$
>  <item-smiles>
CCO[C@H](c1cc(OC)cc([N+](=O)[O-])c1OC)[C@H](C)[C@@H](OC)[C@H](C)C=CCC(=O)OC

>  <composite z-score>
0.018

$$$$
